B1: library; numbered along this chain (parent)
chain: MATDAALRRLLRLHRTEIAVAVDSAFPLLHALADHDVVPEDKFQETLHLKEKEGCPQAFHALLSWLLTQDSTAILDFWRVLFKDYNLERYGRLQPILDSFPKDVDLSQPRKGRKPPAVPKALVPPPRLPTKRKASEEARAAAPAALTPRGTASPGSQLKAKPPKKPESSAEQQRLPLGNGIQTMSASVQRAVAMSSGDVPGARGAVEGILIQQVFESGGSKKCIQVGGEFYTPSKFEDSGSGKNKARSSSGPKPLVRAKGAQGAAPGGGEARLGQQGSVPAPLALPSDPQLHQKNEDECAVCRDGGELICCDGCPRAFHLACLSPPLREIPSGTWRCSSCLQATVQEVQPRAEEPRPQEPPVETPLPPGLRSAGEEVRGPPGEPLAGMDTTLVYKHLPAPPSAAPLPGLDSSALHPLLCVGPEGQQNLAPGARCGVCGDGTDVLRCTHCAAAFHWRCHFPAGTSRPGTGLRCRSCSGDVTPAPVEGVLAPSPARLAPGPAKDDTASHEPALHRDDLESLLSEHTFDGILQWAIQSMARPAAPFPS

variants of: B1; assay: AIRE transcriptional activation functional score (insulin promoter-GFP; nonsense median 0, synonymous median 1) (normalised score); higher = higher AIRE activity (more reporter activation); details: with insulin promoter-GFP reporter in HEK293
Binning rule for recorded AIRE transcriptional activation functional score: Low (below 0.6), Mid (0.6 to below 0.9), High (0.9 or more)

>  <mutation-annotation>
V226H

>  <category>
Low

$$$$
>  <mutation-annotation>
L7I

>  <category>
High

$$$$
>  <mutation-annotation>
Q290G

>  <category>
High

$$$$
>  <mutation-annotation>
V256E

>  <category>
Mid

$$$$
>  <mutation-annotation>
R174N

>  <category>
Low

$$$$
>  <mutation-annotation>
P430Y

>  <category>
High

$$$$
>  <mutation-annotation>
G469H

>  <category>
High

$$$$
>  <mutation-annotation>
L210Y

>  <category>
Mid

$$$$
>  <mutation-annotation>
S464F

>  <category>
Mid

$$$$
>  <mutation-annotation>
C223L

>  <category>
Mid

$$$$
>  <mutation-annotation>
L97D

>  <category>
Mid

$$$$
>  <mutation-annotation>
T468S

>  <category>
High

$$$$
>  <mutation-annotation>
I224P

>  <category>
Low

$$$$
>  <mutation-annotation>
W531C

>  <category>
Low

$$$$
>  <mutation-annotation>
A532I

>  <category>
Low

$$$$
>  <mutation-annotation>
A191W

>  <category>
Low

$$$$
>  <mutation-annotation>
A352F

>  <category>
High

$$$$
>  <mutation-annotation>
T72R

>  <category>
Low

$$$$
>  <mutation-annotation>
R12P

>  <category>
Low

$$$$
>  <mutation-annotation>
P266M

>  <category>
High

$$$$
